Taken from patent US6835714B1.

# maps each entry to its solubility
PROTOCOL_NOTES: Solubility in aqueous solvent
Assay type: physicochemical
PROTOCOL_CONDITIONS: aqueous buffer; 25° C., 0.1 M phosphate buffer pH 7.4; read-out: Solubility, 0.1 M Phosphate buffer (pH 7.4)
Procedure: Experiment 4: Solubility in Aqueous Solvent The solubility in an aqueous solvent of the present compound was measured, and the results as shown in Table 4 were obtained. The pH value in Table 4 is a pH value of a solution of the present compound in distilled water.

Reference set, count: 3
Report solubility for CC(C)(C)C(=O)Oc1ccc(S(=O)(=O)Nc2ccccc2C(=O)NCC(=O)O)cc1 [Control (a), reference compound]
~20 mg/mL

Report solubility for CC(C)[C@H](NC(=O)CN1CCN(CC(=O)O)C1=O)C(=O)N1CCC[C@H]1C(=O)N[C@H](C(=O)C(F)(F)F)C(C)C
> 1000 mg/mL

Report solubility for CC(C)[C@H](NC(=O)[C@@H]1CCCN1C(=O)[C@@H](NC(=O)Cn1ccc(=O)n(CC(=O)O)c1=O)C(C)C)C(=O)c1nc2ccccc2o1
> 100 mg/mL

Now consider the entry below.
Report solubility for CC(C)[C@H](NC(=O)[C@@H]1CCCN1C(=O)[C@@H](NC(=O)Cn1ccc(=O)n(CC(=O)O)c1=O)C(C)C)C(=O)C(=O)NCc1ccccc1
> 100 mg/mL
